Experiment: Pharmacokinetics after single i.p. administration
Format: in vivo, male Swiss Albino mice
Details: male, Swiss Albino, mouse, plasma, ip; 7.5 mg/kg i.p.; read-out: terminal plasma half-life
Metric Name: half-life
Give the figure together with its unit, number first.

Problem: Suppose we examine the compound COC1=CC(=O)C(O)=C/C1=C/C=C/c1ccccc1 [OBT] ; what half-life value has been reported?
Result: 24 min

###

Experiment: Pharmacokinetics after single i.p. administration
Assay type: in vivo, male Swiss Albino mice
Conditions: male, Swiss Albino, mouse, brain, ip, 7.5 mg/kg; 0.5 hr after single i.p. dose; read-out: brain-to-plasma ratio
Metric Name: Kp at 0.5 h

Problem: Suppose we examine the compound COC1=CC(=O)C(O)=C/C1=C/C=C/c1ccccc1 [OBT] ; what Kp at 0.5 h value has been reported?
Result: 0.27
